# experimentNotes: Pharmacokinetic assay in Balb/c mice (plasma and brain tissue)
# Format: in vivo
# measurementSetup: mouse, po; plasma, 5 mg/kg p.o., male Balb/c mice; read-out: Peak time tmax
# Experimental: Balb/c mice were used as test animals. The pharmacokinetic behavior in mice (plasma and brain tissue) of the compounds of Examples 2, 3, 5, 6, 9, 13, 59, 60, 61, 63, 71-74, 81, 103, 130, 134, 135, 137, 138, 140, 141, 143, 145 and 146 orally administered at a dose of 5 mg/kg was studied. Each group had 24 male Balb/c mice. […] The main parameters of pharmacokinetics were calculated by WinNonlin 6.1.
parameter: Tmax
Please provide the amount together with its unit, number first.

### Prompt Please report the recorded Tmax for C[C@@]1(O)CC[C@H]2[C@H](CC[C@@H]3[C@@H]2CC[C@@]2(C)[C@H]3[C@@H]3C[C@@H]3[C@@H]2C(=O)Cn2ccc(C(F)(F)F)n2)C1 .
### Response 30 min

### Prompt Please report the recorded Tmax for CC[C@@H]1C[C@H](C(=O)Cn2cc(C#N)cn2)[C@@]2(C)CC[C@H]3[C@@H](CC[C@@H]4C[C@](C)(O)CC[C@@H]43)[C@H]12 .
### Response 60 min

### Prompt Please report the recorded Tmax for C[C@@]1(O)CC[C@H]2[C@H](CC[C@@H]3[C@@H]2CC[C@@]2(C)[C@H]3[C@@H]3C[C@@H]3[C@@H]2C(=O)Cn2cc(C#N)cn2)C1 .
### Response 30 min

### Prompt Please report the recorded Tmax for CC[C@@H]1C[C@H](C(=O)Cn2ccc(C#N)n2)[C@@]2(C)CC[C@H]3[C@@H](CC[C@@H]4C[C@](C)(O)CC[C@@H]43)[C@H]12 .
### Response 60 min

### Prompt Please report the recorded Tmax for C[C@@]1(O)CC[C@H]2[C@H](CC[C@@H]3[C@@H]2CC[C@@]2(C)[C@H]3[C@@H]3C[C@@H]3[C@@H]2C(=O)Cn2cc(C(F)(F)F)cn2)C1 .
### Response 30 min

====

# Tested on: PTZ-induced epilepsy model in CD-1 mice
# experimentNotes: In vivo pharmacodynamic test in the PTZ-induced epilepsy model in mice
# measurementSetup: dose 3 mpk p.o., PTZ 120 mg/kg s.c., 30 min observation
parameter: Incubation period of the generalized tonic seizure, Mean

### Prompt Please report the recorded Incubation period of the generalized tonic seizure, Mean for C[C@@H]1C[C@H](C(=O)Cn2ccc(C#N)n2)[C@@]2(C)CC[C@H]3[C@@H](CC[C@@H]4C[C@](C)(O)CC[C@@H]43)[C@H]12 .
### Response 1800.0 ± 0.0 s

### Prompt Please report the recorded Incubation period of the generalized tonic seizure, Mean for C[C@@]1(O)CC[C@H]2[C@H](CC[C@@H]3[C@@H]2CC[C@@]2(C)[C@H]3[C@@H]3C[C@@H]3[C@@H]2C(=O)Cn2ccc(C#N)n2)C1 .
### Response 1736.0 ± 63.2 s

### Prompt Please report the recorded Incubation period of the generalized tonic seizure, Mean for C[C@@H]1C[C@H](C(=O)Cn2nccn2)[C@@]2(C)CC[C@H]3[C@@H](CC[C@@H]4C[C@](C)(O)CC[C@@H]43)[C@H]12 .
### Response 1497.4 ± 124.3 s

### Prompt Please report the recorded Incubation period of the generalized tonic seizure, Mean for Cc1nnn(CC(=O)[C@H]2C[C@@H](C3CC3)[C@H]3[C@@H]4CC[C@@H]5C[C@](C)(O)CC[C@@H]5[C@H]4CC[C@@]32C)n1 .
### Response 1506.8 ± 149.8 s
